B1: Ankyrin repeat and SAM domain-containing protein 6, residues 774 to 836; numbered along this chain, Q68DC2 (parent)
chain: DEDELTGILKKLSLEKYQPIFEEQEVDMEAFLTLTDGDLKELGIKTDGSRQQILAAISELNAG

variants of: B1; test: abundance fitness (aPCA) (normalised: wild type 0, dead -1); higher = more abundant; growth selection in yeast, the domain comes from the species named; details: Homo sapiens
measured.property: abundance fitness

Worked cases, answers included:
| sequence.entry | measured.property | recorded.result |
| --- | --- | --- |
| DEDELTGILKKLSLEKYQPIFEEQEVDMEAFLTLTDGDLKELGIKTDGSRQQCLAAISELNAG [I53C] | abundance fitness | -0.404 |
| DEDELTGILKKTSLEKYQPIFEEQEVDMEAFLTLTDGDLKELGIKTDGSRQQILAAISELNAG [L12T] | abundance fitness | -0.35 |
| DEDELTGILKKLSLEKYQPIFEEQEVDMEAFPTLTDGDLKELGIKTDGSRQQILAAISELNAG [L32P] | abundance fitness | -0.199 |
| DEDELTGILKKLSLEKYQPIFEEQEVDMEAFLTLTDGDLKELGIKTDGSRQQILAAISELLAG [N61L] | abundance fitness | -0.299 |
| DEDELTGILKKLSLEKYQPIFEEQEVDMEAFLTLTDGDLKELGGKTDGSRQQILAAISELNAG [I44G] | abundance fitness | -0.592 |

Documented abundance fitness of DEDELTGILKKLSLEKYQPIFEEQEVDMEAFLTLTDGDLKELGIKTDMSRQQILAAISELNAG [G48M] : -0.113

Documented abundance fitness of DEDELTGILKKLSLEKYQPIPEEQEVDMEAFLTLTDGDLKELGIKTDGSRQQILAAISELNAG [F21P] : -0.65

Documented abundance fitness of DEDELTGILKKLSLEKYQPIFEEQEVDMEAFLTLTDGDLKELGIKTDGSRQQILAAISELNAS [G63S] : -0.069

Documented abundance fitness of DEDELTGILKKLSLEKYQPIFEEQEVDMEAFLTLTDGDLKELGIKTDGSRQDILAAISELNAG [Q52D] : 0.112
